Sourced from ChEMBL document CHEMBL1157539

Test system: HepG2
assay info: GSK_TCMDC: Percent inhibition of human HepG2 cell line. Test compounds present at 10uM.
Type: functional
Given measured Inhibition, output criterion met if it is greater than or equal to 20% and criterion not met if not.

1) CC(=O)Nc1cccc(Nc2c3ccccc3nc3ccccc23)c1 :: criterion met
2) CCCOc1cc(Cc2cnc(N)nc2N)cc(OC)c1OC :: criterion met
3) O=C(O)C(F)(F)F.Oc1ccc(CCCNc2nc(NCc3cccc4ccccc34)nc(N3CCNCC3)n2)cc1 :: criterion not met
4) Nc1cc(/C=C/c2ccc([N+](=O)[O-])s2)nc2ccccc12 :: criterion met
5) CCN(CC)CCn1c2ccccc2c2ccc(C(=O)Nc3ccc4sc(C)nc4c3)cc21.Cl :: criterion met

* * *

Tested on: HepG2
assay info: GSK_TCMDC: Percent inhibition of human HepG2 cell line. Test compounds present at 10uM.
Format: functional
Inhibition: recorded values
parameter: Inhibition (%)

1. CC1(C)Cc2c(oc3ncn(CCn4cnc5oc6c(c5c4=N)CC(C)(C)SC6)c(=N)c23)CS1 :: 0
2. c1cncc(CN2CCN(Cc3ccc(-c4ccc(-c5nc6ccccc6[nH]5)s4)cc3)CC2)c1 :: 32
3. Cn1cnc(CCNC(=O)c2cccc(-c3cccc(-c4nc5cc(C(F)(F)F)ccc5[nH]4)c3)c2)c1 :: 37

* * *

Inhibition: recorded values
Test system: HepG2
assay info: GSK_TCMDC: Percent inhibition of human HepG2 cell line. Test compounds present at 10uM.
Type: functional
parameter: Inhibition

1. CCOc1cc(C(=O)NC2CCN(Cc3ccccc3)CC2)ccc1-c1nc2cc(Cl)ccc2[nH]1 :: 10%
2. NC1CCCN(Cc2ccc(-c3ccc(-c4nc5cc(F)ccc5[nH]4)s3)cc2)C1.O=C(O)C(F)(F)F (stereo not drawn) :: 40%
3. CN1CCC(N2CCN(C(=O)c3cccc(-c4cccc(-c5nc6ccccc6[nH]5)c4)c3)CC2)CC1 :: 10%

* * *

System: Plasmodium falciparum
assay info: GSK_TCMDC: Inhibition of Plasmodium falciparum 3D7 in whole red blood cells, using parasite LDH activity as an index of growth. Test compounds present at 2uM
Assay type: functional
parameter: Inhibition (%)

1) CCc1cc2c(Sc3nnc(N)s3)ncnc2s1 :: 99
2) CC(C)C[C@H](NC(=O)c1cc2cc(OCCN3CCNCC3)ccc2o1)C(=O)NC1CC[C@@H](C)N(C(=O)Nc2ccc(Cl)cc2)CC1=O.O=C(O)C(F)(F)F (stereo partly drawn) :: 90
3) N#Cc1cccc(C(=O)N2CCOC(CCN3CCC(c4ccccc4)CC3)(c3ccc(Cl)c(Cl)c3)C2)c1 (stereo not drawn) :: 87
4) CC(Cc1ccc(NC(=O)c2ccc(CC(C)NCc3ccc(Cl)cc3)cc2)cc1)NCCc1cccc(Cl)c1 (stereo not drawn) :: 100
5) O=C(NCCCN1CCOCC1)c1ccc(-c2cccc(NC(=O)c3ccc(Cl)c(Cl)c3)c2)cc1 :: 100
6) c1ccc(N2CCN(c3cc(-c4cccnc4)nc(-c4ccncc4)n3)CC2)nc1 :: 99
7) Cl.O=[N+]([O-])c1ccc(C(O)CNCCc2ccccc2)cc1OCc1ccccc1 (stereo not drawn) :: 94
8) CCN(CC)C(=O)C(=O)c1c[nH]c2ccc(Cl)cc12 :: 96
9) CC12CCC(C(=O)N(CC(O)Cn3c4ccc(Cl)cc4c4cc(Cl)ccc43)C1=O)C2(C)C (stereo not drawn) :: 100
10) CCOC(=O)c1cnc2c(OC)cc(OC)c(Cl)c2c1Nc1cccc(C)c1C :: 100
11) O=C(/C=C/c1ccc(Cl)c(Cl)c1)NCCCCCN1CCCN(C(=O)Nc2cc(F)cc(F)c2)CC1 :: 94
12) Cc1ccccc1C1CCN(c2ccc(NC(=O)c3ccc(Cl)nc3)cc2)CC1.O=C(O)C(F)(F)F :: 92
13) NC1CCCN(Cc2ccc(-c3ccc(-c4nc5cc(F)ccc5[nH]4)s3)cc2)C1.O=C(O)C(F)(F)F (stereo not drawn) :: 100
14) CN(C)Cc1cccc(-c2ccc(NC(=O)c3ccc4c(=O)n(Cc5cnn(C)c5)cnc4c3)cc2)c1 :: 80
15) N=C(N)NC(=O)Nc1cc(Cl)c(Cl)c(Cl)c1 :: 100
16) O=C(N[C@H]1CCN(Cc2ccc(OCCN3CCCC3)c(Cl)c2)C1)c1ccc(Cl)c(Cl)c1.O=C(O)C(F)(F)F :: 100
17) CC(c1cccc(S(=O)(=O)NCc2cccc(C(F)(F)F)c2)c1)N1CCC(N2CCCCC2)CC1 (stereo not drawn) :: 99
18) CC(O)C(C)(CO)NCc1ccc2c3c(cccc13)-c1ccccc1-2.Cl (stereo not drawn) :: 95
